Tested on: Escherichia coli ATCC 25922
PROTOCOL NOTES: Oral formulations on mice with systemic bacterial infection
Assay type: in vivo, ICR mice
SETTINGS: 0.2 mg/kg gavage, three times a day for 7 days, n = 10
Non-standard residues stand in square brackets, D forms with d. Residues, ends and D or L forms follow the SMILES beside them. d2Nal = N[C@H](Cc1ccc2ccccc2c1)C(=O)O; dNle = CCCC[C@@H](N)C(=O)O
Parameter Number of mice that died on each day after infection: day 7: see the listing below.
# unit: Mouse | format: bare number

Example compounds with recorded Number of mice that died on each day after infection: day 7:
{"columns": ["COMPOUND", "TARGET DESC", "VALUE OBSERVED"],
 "data": [
  ["CC(=O)N[C@H](CCCNC(=N)N)C(=O)N[C@H](CCCCN)C(=O)N[C@H](CC(C)C)C(=O)N[C@H](CC(C)C)C(=O)N[C@H](Cc1ccccc1)C(=O)N[C@H](CCCNC(=N)N)C(=O)N[C@H](CC(C)C)C(=O)N[C@H](CCCCN)C(=O)N[C@H](Cc1ccccc1)C(=O)N[C@H](CCCNC(=N)N)C(=O)N[C@H](CCCCN)C(N)=O [LV-2] (Ac-[dR][dK][dL][dL][dF][dR][dL][dK][dF][dR][dK]-NH2)", "Escherichia coli ATCC 25922", 1],
  ["CC(=O)N[C@H](CCCNC(=N)N)C(=O)N[C@H](CCCCN)C(=O)N[C@H](CC(C)C)C(=O)N[C@H](CC(C)C)C(=O)N[C@H](Cc1ccc2ccccc2c1)C(=O)N[C@H](CCCNC(=N)N)C(=O)N[C@H](CC(C)C)C(=O)N[C@H](CCCCN)C(=O)N[C@H](Cc1ccc2ccccc2c1)C(=O)N[C@H](CCCNC(=N)N)C(=O)N[C@H](CCCCN)C(N)=O [LV-20] (Ac-[dR][dK][dL][dL][d2Nal][dR][dL][dK][d2Nal][dR][dK]-NH2)", "Escherichia coli ATCC 25922", 2]
]}

Attention now shifts to the item below.
Problem: Recorded Number of mice that died on each day after infection: day 7 for CCCC[C@@H](NC(=O)[C@@H](CCCCN)NC(=O)[C@@H](CCCNC(=N)N)NC(C)=O)C(=O)N[C@H](CCCC)C(=O)N[C@H](Cc1ccc2ccccc2c1)C(=O)N[C@H](CCCNC(=N)N)C(=O)N[C@H](CCCC)C(=O)N[C@H](CCCCN)C(=O)N[C@H](Cc1ccc2ccccc2c1)C(=O)N[C@H](CCCNC(=N)N)C(=O)N[C@H](CCCCN)C(N)=O [LV-12] (Ac-[dR][dK][dNle][dNle][d2Nal][dR][dNle][dK][d2Nal][dR][dK]-NH2) , please?
Solution: 1
